# Test system: BDF1 mice, P388 leukemia ip, median survival T/C
# ASSAY PROCEDURE: NCI In Vivo Anticancer Drug Screen. Data for tumor model P388 Leukemia (intraperitoneal) in B6D2F1 (BDF1) mice
# REPORTED CONDITIONS: endpoint: median survival time; dose: 200.0 mg/kg/injection; schedule: Q04DX003 (ip); vehicle: saline with Tween-80
Inconclusive results and toxic doses are left out. How the source made its calls: active means survival T/C of 150% or more; inactive means T/C below 125% in these data.
Just give me one of these, please: class 1 (active), class 0 (inactive)

Record excerpt, results attached:
>>> label_value("Cc1cc(C)c(NS(=O)(=O)c2ccccc2)c(C)n1")
"class 0"
>>> label_value("CC1=C(C)Cc2c(c(OC(=O)c3ccccc3)cc(Cl)c2OC(=O)c2ccccc2)C1")
"class 0"
>>> label_value("Cc1c(C#N)c2nc(C(=O)c3ccc(Br)cc3)cc(-c3ccc(Br)cc3)n2c1C")
"class 0"
>>> label_value("CCN(CC)C(=O)C1=NNc2ccc(Cl)cc2C(=O)N1C")
"class 0"

Hey, what did the test say about "COc1cc(/C=N\NC(C)=O)cc(OC)c1OC" ?
class 0

Outcome logged for "C/C=C/CCCCCCCC(=O)OCCCC" in this assay:
class 0

What classification did CC(C)C1NC(=O)C2CCCN2C1=O (configuration not stated) end up with in this test?
class 0

Test call for this compound, please: "CCc1ccc(C(=O)C2CC2)cc1"
class 0

Just curious, what result did "CC(C)=NNS(=O)(=O)c1ccccc1" get here?
class 0

Which outcome was assigned to "ClCCN(CCCl)c1ccc2c3c(cccc13)-c1ccccc1-2" in this test?
class 1

Hello, I am checking results. What call was entered for "COc1cc2c3c(c1)/C(=N\N)CCN3CCC2" ?
class 0

Tell me the recorded outcome of this test for "CCCO/C(N)=N/OS(=O)(=O)c1ccccc1" .
class 0
